Value source: PubChem BioAssay (NCI)

Listed compounds paired with reported TGI
system: 786-0 renal; test: NCI tumour cell line growth inhibition, 48 h
Where a SMILES comes first, the peptide text is derived from it.

Compound	TGI
N#Cc1c(O)cc(=O)n2c1[nH]c1ccccc12	> 100 µM
CCN(CC)CCN(Cc1ccc(F)cc1)c1ccc(CO)c(Cl)c1	> 100 µM
Cc1cccc(N2C(=O)C(=O)C(c3nc4ccccc4s3)/C(=N/NC(=S)NN)C2=O)c1C (stereo unspecified)	> 100 µM
Cc1cc(C(=O)O)c(C)n1-c1cccc(C(=O)O)c1	> 100 µM
NC(N)=Nc1nc2ccc([N+](=O)[O-])cc2[nH]1	> 100 µM
Cc1c(N/C=C(\C#N)C(=O)c2ccc(Cl)cc2)c(=O)n(-c2ccccc2)n1C	> 100 µM
C(=N\OCCc1ccccc1)/c1cccnc1	> 100 µM
OCCNCCCOc1ccc2ncnc(Nc3ccc(Oc4cccc(C(F)(F)F)c4)c(Cl)c3)c2c1	3.03 µM
CCN(CC)C(=O)N1CCN(C=S)CC1	> 100 µM
CC(C)(C)c1cc(OCc2nnc3sc(=S)[nH]n23)c(Cl)cc1OCc1nnc2sc(=S)[nH]n12	95 µM
COc1cc2ncnc(Nc3ccc4c(cnn4Cc4ccccc4)c3)c2cc1OC	> 25 µM
CC1C[C@]2(C[C@@H](C)C(=O)O2)O[C@@H]2CC3(C)[C@@H]4CCC5C(C)(C)OC(=O)C[C@H]6OO[C@]4(CC[C@]3(C)C12)CC56O (stereo partly specified)	> 100 µM
O=[N+]([O-])c1cc(Cl)ccc1OCc1ccccc1	> 100 µM
COc1ccc(/C(Cl)=C(\c2ccc(OCCN(C)C)cc2)c2ccc(OC(=O)C(C)(C)C)cc2)cc1	22.6 µM
CCC(C)C1NC(=O)C2CCCN2C(=O)CNC(=O)C(C)NC(=O)C(Cc2ccccc2)NC(=O)C(C(C)C)NC1=O (stereo unspecified) (cyclo(GPIVFA); configuration not given here)	> 100 µM
O=[n+]1c2ccccc2n([O-])c2cc(Cl)ccc21	13.4 µM
CC(CNCCCNCCNCCCNCO)[N+](=O)[O-] (stereo unspecified)	29.3 µM
O=[N+]([O-])/C(C(Cl)=C(Cl)Cl)=C(\Nc1ccccc1)n1nnc2ccccc21	> 100 µM
Cc1sc(C)c2c1C(=O)CC2N (stereo unspecified)	22.5 µM
CCCNC(=O)c1ccc(Cl)cc1Cl	> 100 µM
COC(=O)/C=C1/SC(N2N=C(c3cccs3)CC2c2ccc(F)cc2)=NC1=O (stereo unspecified)	8.61 µM

====

system: SN12C renal; test: NCI tumour cell line growth inhibition, 48 h
Endpoint: GI50

> print(dat)
                                   compound  study.system  test.result
1  CCc1cc2ncc(CN3CCN(c4ccc(C(=O)NC)nc4)CC3)cc2[nH]c1=O   SN12C renal      98.3 µM
2  Cc1ccc(C2=C(c3ccccc3)C(c3ccccc3)Oc3ccc(C)cc32)cc1 (stereo not given)   SN12C renal      17.3 µM
3  CCOC(=O)c1c(C)nc2c(c1N)CC(=O)N2CCc1ccccc1   SN12C renal     0.434 µM
4  COc1cc(N2CCN(C(C)C)CC2)ccc1Nc1nc(Nc2cccc(F)c2C(=O)O)c2cc[nH]c2n1   SN12C renal      > 25 µM
5  CCC(=O)Nc1ccccc1C#C/C=C\C#Cc1ccccc1C(F)(F)F   SN12C renal      2.22 µM

====

system: K-562 leukemia; test: NCI tumour cell line growth inhibition, 48 h
Items are presented alongside their recorded TGI.
Endpoint: TGI

> print(dat)
                                   molecule  endpoint  test.result
1  COC(=O)c1ccccc1/C=C1\Cc2c(C)cc(C)cc2C1=O       TGI     > 100 µM
2  CC1=CC(C)C(C)N(CCNS(=O)(=O)c2ccc(C)cc2)c2ccccc21 (stereo not given)       TGI      27.5 µM
3  CCOC(=O)c1oc2ccc([N+](=O)[O-])c3c2c1CCC3       TGI     > 100 µM
4  CSc1nc(NC2OC(COC(C)=O)C(OC(C)=O)C(OC(C)=O)C2OC(C)=O)c(-c2csc(N)n2)c(=O)n1C (stereo not given)       TGI     > 100 µM
5  Nc1nc2ccc(OCC(O)CN3CCCCC3)cc2[n+]([O-])n1 (stereo not given)       TGI     > 100 µM

====

The following compounds are listed with their measured log10(TGI) values.
system: HS 578T breast; test: NCI tumour cell line growth inhibition, 48 h
Endpoint: log10(TGI) (log10 of the value in µM)

> print(dat)
                                    compound  test.result
 1  COc1cc(C2C3=C(COC3=O)Nc3c2ccc2c3CCCC2)cc2c1OCO2 (configuration not stated)         1.66
 2  O=C1C(=O)c2ccccc2C(O)=C1CCCc1ccc(C2CCCCCC2)cc1         1.76
 3  CN(C)CCn1c(=O)c2ccc3c4c(nn3CCN(C)C)c3cc([N+](=O)[O-])ccc3n(c1=O)c24         0.45
 4  O=C(Cc1nc2ncccc2[nH]c1=O)c1c[nH]c2ccccc12         1.61
 5  CN(C)CC1CCCCCCCCCC(CN(C)C)C1=O (configuration not stated)         1.38
 6           C/C(=N\N=C(\[Se])N(C)C)c1ccccn1         1.61
 7  COc1cc([C@@]23OC[C@@H]4[C@@H](OC[C@@H]42)c2cc4c(cc23)OCO4)cc(OC)c1OC         1.02
 8  CN(C)CC(C(=O)Cc1ccccc1)c1ccccc1 (configuration not stated)         0.99
 9  Cc1[nH]nc2c1N=C(c1ccccc1F)c1cc(C(N)=O)ccc1N2         0.86
10  CC(=O)C1=C(C)N(C)C2(O)C=CC(=O)C3=C(O)c4ccccc4C(=O)C312 (configuration not stated)         1.61

====

test system: CAKI-1 renal; assay: NCI tumour cell line growth inhibition, 48 h
Endpoint: TGI (µM)

> print(dat)
                                    compound  study.system  endpoint  cmp  test.result
 1  COCCN1CCN(Cc2ccc(-c3n[nH]c4c3C(=O)c3c(NC(=O)NN5CCOCC5)cccc3-4)cc2)CC1  CAKI-1 renal       TGI    >           10
 2        CC(=O)ON1C(=O)c2cccc3cccc(c23)C1=O  CAKI-1 renal       TGI    =           49
 3            COc1ccc(/C=C2/NC(=S)N=C2Cl)cc1  CAKI-1 renal       TGI    >          100
 4  O=c1c(Br)cc2c(-c3ccccc3)c3cc(Br)c(O)c(Br)c3oc-2c1Br  CAKI-1 renal       TGI    >          100
 5  CC(C)CC(Nc1c(O)ccc2ccccc12)C(=O)O (stereo not given)  CAKI-1 renal       TGI    =         47.4
 6  COC(=O)c1c[nH]c2c1-c1cc(C(=O)OCc3ccccc3)n(S(=O)(=O)c3ccc(C)cc3)c1C(=O)C2=O  CAKI-1 renal       TGI    =         2.65
 7          CCCCC(=O)N/N=C/c1c(O)ccc2ccccc12  CAKI-1 renal       TGI    =         2.26
 8  COc1cc(-c2n/c(=C\c3c(O)[nH]c4cc(Cl)ccc34)cc3c2=Nc2ccccc2-3)cc(OC)c1OC  CAKI-1 renal       TGI    =           60
 9  COC(=O)/C=C1/SC(N2N=C(c3cccs3)CC2c2ccc(F)cc2)=NC1=O (stereo not given)  CAKI-1 renal       TGI    =         10.2
10  CSc1nc(NC2OC(COC(C)=O)C(OC(C)=O)C(OC(C)=O)C2OC(C)=O)c(-c2csc(N)n2)c(=O)n1C (stereo not given)  CAKI-1 renal       TGI    >          100

====

test system: HT29 colon; test: NCI tumour cell line growth inhibition, 48 h
Where a SMILES comes first, the peptide text is derived from it. [ ]: non-standard residue; d: D form. The star is where a group is joined. ξ: configuration not given here. ξF = NC(Cc1ccccc1)C(=O)O; Cbz = O=C(OCc1ccccc1)*; Aib = CC(C)(N)C(=O)O
Known TGI of a selection of compounds
Endpoint: TGI

> print(dat)
                                    compound  test.result
 1  COC(=O)C(C)(C)NC(=O)C(Cc1ccccc1)NC(=O)C(C)(C)NC(=O)OCc1ccccc1 (stereo unspecified) (Cbz-[Aib]-[ξF]-[Aib]-OMe)     > 100 µM
 2  CC1(C)OCC([C@H]2CC23SCCCS3)O1 (stereo partly specified)     > 100 µM
 3      Cc1ccc(C(O)(c2ccc(C)cc2)c2ccccn2)cc1     > 100 µM
 4     CCCCOCc1cc(CN2CCN(C)CC2)c(O)c2ncccc12     > 100 µM
 5  COC1=CC(=O)c2c(c(COP(=O)(N(C)CCBr)N(C)CCBr)cn2C)C1=O     0.222 µM
 6  O=[N+]([O-])C(=C1Nc2ccccc2N1)/C(Cl)=C(/Cl)N1CCOCC1     > 100 µM
 7  COc1ccc2c(c1)CC1c3c(ccc(OC)c3O)CC2N1C (stereo unspecified)      57.5 µM
 8  CCN(CC)CCN(Cc1ccc(F)cc1)c1ccc(CO)c(Cl)c1      69.4 µM
 9                 CCN(CC)C(=O)N1CCN(C=S)CC1     > 100 µM
10        O=c1oc2ccc(Cl)cc2cc1-c1cn2ccccc2n1    > 50.6 µM
11  Cc1ncc([N+](=O)[O-])n1CCNCCCn1ccnc1[N+](=O)[O-]     > 100 µM
